- Tested on: A498 renal
- Assay method text: NCI tumour cell line growth inhibition, 48 h
Metric: TGI

| Compound | Reported value |
| --- | --- |
| CCN(CC)c1ccc2c(c1)OC(N)=C(C#N)C2c1cc(OC)c2c(c1)OCO2 (stereo not drawn) | 0.0809 µM |
| N#CC(N)(C(=O)CCC(=O)Nc1cccc(Cl)c1)c1ccc(Cl)cc1 (stereo not drawn) | > 100 µM |
| Oc1c(C2=NNC(c3ccc(Cl)cc3Cl)C2)ccc2ccccc12 (stereo not drawn) | > 100 µM |
| CC1=NNC(=O)C2CCC(=O)N12 (stereo not drawn) | > 100 µM |
| NC(=Nc1c([N+](=O)[O-])cnc2ccccc12)N1CCOCC1 | > 100 µM |
| COc1ccc(/C=C(/C(=O)N2CCN(c3ccccc3)CC2)c2cc(OC)c(OC)c(OC)c2)cc1O | 1.92 µM |
| CNC(=O)N(C)N=NCCCl | > 100 µM |
| COC(=O)c1ccc(C(=O)NC(Cc2ccc(Oc3cc(CC(NC(=O)c4ccccc4C(=O)OC)C(=O)OC)ccc3OC)cc2)C(=O)OC)cc1 (stereo not drawn) | > 100 µM |
| CC(=O)N(C)c1ccc(Nc2cc(C)[nH]c3ccc4ncnc4c23)cc1 | 25.2 µM |
| CC(CCC=O)CCOCc1ccccc1 (stereo not drawn) | > 100 µM |
| CC(C)(C)[Si](OC1CC(n2cnc3c(N)ncnc32)OC1CO)(c1ccccc1)c1ccccc1 (stereo not drawn) | 32.9 µM |
| COc1ccc2c3c([nH]c2c1[N+](=O)[O-])C(C)=NCC3 | > 100 µM |
| Cn1c2c(c3ccccc31)C1CCCCCCC1C1C(=O)OC(=O)C21 (stereo not drawn) | > 100 µM |
| N#Cc1c(-c2ccc(Cl)cc2)c2c([nH]c1=O)-c1ccccc1SC2 | > 100 µM |
| Cc1ccc(C)c(C2=C(c3cn(C)c4ccccc34)C(=O)NC2=O)c1 | > 22.8 µM |
| CCOC(=O)C1=C(C)N(Cc2ccc(Cl)cc2Cl)C2(O)C=CC(=O)C3C(=O)N(c4ccccc4)C(=O)C132 (stereo not drawn) | 16.9 µM |
| Cc1ccc(Cc2c(=O)[nH]nc3ccccc23)cc1 | > 100 µM |
| N#Cc1nc2ccccc2nc1N1CCN(c2ccc([N+](=O)[O-])cc2)CC1 | > 100 µM |
| O=C(O)CCC(=O)c1ccc[nH]1 | > 100 µM |
| Cc1cc(I)cc(CN(C)CCCN2CCCCCCC2)c1O | 32.9 µM |
| COc1cc(/C=C2\C[C@H]3[C@@H]4CCc5cc(O)ccc5[C@H]4CC[C@]3(C)C2=O)cc(OC)c1OC | 87.5 µM |
| Clc1nc2ccccc2nc1CI | 42.9 µM |
| O=C(Nc1ccc(Cl)cc1F)c1ccccc1O | 6.29 µM |
